These measurements were taken from patent US12459951B2.

# Test system: KRas G12C mutant
# test method notes: Ras GTP Binding Domain Inhibition Assay (Ras Superfamily Assay)
# recorded conditions: 20 μM compound, with SOS
Where a name gives a salt, the structure may show the parent alone.
property measured: KRas G12C mutant + SOS: % inh.

Recorded KRas G12C mutant + SOS: % inh., per entry:
COc1cc(-c2cn3nc(-c4nccn4C)nc(Nc4cc(OC)ncn4)c3c2C)ccn1 [Compound 50]    A (A = 1-25% inhibition)
COc1cccc(-c2cn3nc(-c4nccn4C)nc(N[C@H]4C[C@H](OC)C4)c3c2-c2ccccn2)c1F [Compound 45]    A (A = 1-25% inhibition)
CO[C@H]1CC[C@@H](Nc2nc(-c3nccn3C)nn3cc(-c4ccn(C(C)C)n4)c(-c4ccccc4)c23)C1 (racemic) [Compound 18, hydrochloride]    0 (0 = 0% inhibition)
COC[C@@H]1CC[C@@H]1CNc1nc(-c2nccn2C)nn2cc(-c3ccn(C(C)C)n3)c(-c3ccccc3)c12 (racemic) [Compound 20]    0 (0 = 0% inhibition)

Input line: I have this compound here, Cc1c(-c2ccn(C(C)C)n2)cn2nc(-c3nccn3C)nc(Nc3cc(C4CC4)no3)c12 [Compound 69] , and I need its recorded KRas G12C mutant + SOS: % inh..
Output line: 0 (0 = 0% inhibition)

Input line: Field entry: COc1cccc(-c2cn3nc(-c4nccn4C)nc(N[C@@H]4CC[C@H](OC)C4)c3c2-c2ccccc2)c1Cl (racemic) [Compound 33]
Output line: 0 (0 = 0% inhibition)

Input line: Now give it for Cc1c(-c2ccn(C(C)C)n2)cn2nc(-c3nccn3C)nc(Nc3ccncc3)c12 [Compound 52] too.
Output line: A (A = 1-25% inhibition)

Input line: And what about the compound COCCNc1nc(-c2nccn2C)nn2cc(-c3ccn(C(C)C)n3)c(C(C)C)c12 [Compound 35] ?
Output line: 0 (0 = 0% inhibition)

----------
# test method notes: Mouse Liver Microsome Metabolic Stability Assay
# Assay type: in vitro ADME
# recorded conditions: pH 7.4, Mouse liver microsomes, 37° C., NADPH, read-out: t½
# Procedure: Biological Example 10: Assessment of Metabolic Stability in Mouse Liver Microsomes Metabolic Stability Assay: Microsomal incubations were carried out in 96-well plates in 5 aliquots of 30 μL each (one for each time point). […] Five time points over 40 minutes were analyzed. […] Supernatants were analyzed using the HPLC system coupled with tandem mass spectrometer. […]
property measured: half-life at 2 µM

Cc1c(-c2ccn(C)n2)cn2nc(-c3nccn3C)nc(Nc3cc(OC(F)(F)F)ccn3)c12    < 10 min
Cc1c(-c2ccn(C)n2)cn2nc(-c3nccn3C)nc(Nc3cc(C(C)C)[nH]n3)c12    < 10 min
Cc1c(-c2ccn(C)n2)cn2nc(-c3nccn3C)nc(Nc3cc(C4CC4)[nH]n3)c12    > 10 min

Input line: For the compound shown here, "Cc1[nH]nc(Nc2nc(-c3nccn3C)nn3cc(-c4ccn(C)n4)c(C)c23)c1C" , give the reported half-life at 2 µM.
Output line: > 10 min

Input line: Next compound: "CCOc1cc(Nc2nc(-c3nccn3C)nn3cc(-c4ccn(C)n4)c(C)c23)n[nH]1"
Output line: < 10 min

Input line: // repeat for "CCOc1ccnc(Nc2nc(-c3nccn3C)nn3cc(-c4ccn(C5CC5)n4)c(C)c23)c1" and report
Output line: > 10 min

Input line: Another: "Cc1c(-c2cccnc2)cn2nc(-c3nccn3C)nc(Nc3ccncn3)c12"
Output line: > 10 min

Input line: "COc1cc(Nc2nc(-c3nccn3C)nn3cc(-c4ccn(C)n4)c(C)c23)n[nH]1" , same question.
Output line: < 10 min

Input line: One more compound: "Cc1c(-c2ccn(C)n2)cn2nc(-c3nccn3C)nc(Nc3cc4n(n3)CCO4)c12"
Output line: > 10 min

Input line: # repeat for "Cc1c(-c2ccn(C)n2)cn2nc(-c3nccn3C)nc(Nc3cc(-c4ccccn4)[nH]n3)c12"
Output line: > 10 min

Input line: Try the compound "COc1ccnc(Nc2nc(-c3nccn3C)nn3cc(-c4cccnc4)c(C)c23)n1"
Output line: < 10 min

----------
# Test system: KRas G12D mutant
# test method notes: Ras GTP Binding Domain Inhibition Assay (Ras Superfamily Assay)
# recorded conditions: 20 μM compound, without SOS
property measured: KRas G12D mutant: % inh.

CO[C@H]1CC[C@@H](Nc2nc(-c3nccn3C)nn3cc(-c4ccn(C(C)C)n4)c(C(C)C)c23)C1 (racemic)    A (A = 1-25% inhibition)
COc1cccc(Nc2nc(-c3nccn3C)nn3cc(-c4ccn(C(C)C)n4)c(C)c23)n1    A (A = 1-25% inhibition)
COc1cccc(-c2cn3nc(-c4nccn4C)nc(O)c3c2-c2ccccc2)c1Cl    A (A = 1-25% inhibition)

----------
# Test system: KRas G12C mutant
# test method notes: Ras GTP Binding Domain Inhibition Assay (Ras Superfamily Assay)
# recorded conditions: 20 μM compound, with SOS
property measured: KRas G12C mutant + SOS: % inh.

Answered examples (4):
COc1cccc(Nc2nc(-c3nccn3C)nn3cc(-c4ccn(C(C)C)n4)c(C)c23)n1    A (A = 1-25% inhibition)
Cc1c(-c2ccn(C(C)C)n2)cn2nc(-c3nccn3C)nc(Nc3noc(C4CC4)n3)c12    A (A = 1-25% inhibition)
COc1cccc(-c2cn3nc(-c4nccn4C)nc(N[C@H]4C[C@H](OC)C4)c3c2-c2ccccc2)c1F    0 (0 = 0% inhibition)
COc1cccc(-c2cn3nc(-c4nccn4C)nc(N[C@@H]4CC[C@@H](OC)C4)c3c2-c2ccccc2)c1F (racemic)    0 (0 = 0% inhibition)

Input line: Entry "Cc1c(-c2ccn(C(C)C)n2)cn2nc(-c3nccn3C)nc(Nc3ncco3)c12" : reported KRas G12C mutant + SOS: % inh. = ?
Output line: 0 (0 = 0% inhibition)

Input line: Now consider COC1CCCN(c2nc(-c3ccccn3)nn3cc(-c4ccn(C(C)C)n4)c(-c4ccccc4)c23)C1 (racemic) and answer again.
Output line: 0 (0 = 0% inhibition)

Input line: Also need "Cc1c(-c2ccn(C(C)C)n2)cn2nc(-c3nccn3C)nc(Nc3nc(C4CC4)no3)c12" , thanks.
Output line: 0 (0 = 0% inhibition)

Input line: Do the same for "COc1cc(Nc2nc(-c3nccn3C)nn3cc(-c4ccncc4)c(C)c23)ncn1" please
Output line: 0 (0 = 0% inhibition)

Input line: Cool, now COc1cccc(-c2cn3nc(-c4nccn4C)nc(N[C@@H]4CC[C@@H](OC)C4)c3c2-c2ccccn2)c1F (racemic)
Output line: A (A = 1-25% inhibition)

Input line: Let us now turn to "Cc1c(-c2ccn(C(C)C)n2)cn2nc(-c3nccn3C)nc(Nc3cnccn3)c12"
Output line: 0 (0 = 0% inhibition)

Input line: What about this molecule? "Cn1ccnc1-c1nc(OCCN2CCCC2)c2c(-c3ccccc3)ccn2n1"
Output line: 0 (0 = 0% inhibition)

Input line: Then what about the molecule "COc1cc(Nc2nc(-c3nccn3C)nn3cc(-c4ccn(C(C)C)n4)c(-c4ccccc4)c23)ncn1" ?
Output line: A (A = 1-25% inhibition)

Input line: Now consider COCC1CCN(c2nc(-c3ccccn3)nn3cc(-c4ccn(C(C)C)n4)c(C)c23)C1 (racemic) and answer again.
Output line: 0 (0 = 0% inhibition)

Input line: // query: "COCCNc1nc(-c2nccn2C)nn2cc(-c3cccc(OC)c3Cl)c(C)c12"
Output line: 0 (0 = 0% inhibition)

Input line: Now consider COC1CCCN(c2nc(-c3nccn3C)nn3cc(-c4ccn(C(C)C)n4)c(C)c23)C1 (racemic) .
Output line: 0 (0 = 0% inhibition)

----------
# experimental target: Rac-1 (Homo sapiens, UniProt P63000)
# Construct: made in house
# test method notes: Ras GTP Binding Domain Inhibition Assay (Ras Superfamily Assay)
# recorded conditions: read-out: Rac-1: % inh.
# Text: Biological Example 3: Ras GTP Binding Domain Inhibition Assay The assays described in Example 3 are collectively referred to as the “Ras Superfamily Assay” throughout this application. […] The small GTPases proteins: KRas wild type. KRas Q61H mutant, KRas G12C mutant, KRas G12D mutants, Rac-1, and Rho-A were expressed as His-tagged proteins. In addition, the Guanosine nucleotide Exchange Factor (GEF) Sos protein (residues 556-1049) was expressed as a His-tagged protein. […]
Structures can show the parent of a compound that is named as a salt.
Listed molecules paired with reported inhibition at 20 µM

Known results for molecules:
COc1cccc(Nc2nc(-c3nccn3C)nn3ccc(C)c23)n1 [Compound 38]    0%
COc1ncc(Nc2nc(-c3nccn3C)nn3cc(-c4ccn(C(C)C)n4)c(C)c23)cn1 [Compound 80]    1 to 25%
COc1cc(Nc2nc(-c3nccn3C)nn3cc(-c4ccn(C(F)F)n4)c(C)c23)ncn1 [Compound 98]    50 to 75%
COc1cncnc1Nc1nc(-c2nccn2C)nn2cc(-c3ccn(C(C)C)n3)c(C)c12 [Compound 73]    50 to 75%
Cc1cnc2c(c1)CCN2c1nc(-c2nccn2C)nn2cc(-c3ccn(C)n3)c(C)c12 [Compound 239]    76 to 100%
COc1cc(-c2cn3nc(-c4nccn4C)nc(N[C@H]4C[C@H](OC)C4)c3c2C)ccn1 [Compound 160]    1 to 25%
COC[C@@H]1CC[C@@H]1CNc1nc(-c2ccccn2)nn2cc(-c3ccn(C(C)C)n3)c(-c3ccccc3)c12 (racemic) [Compound 26]    0%
COc1ccnc(Nc2nc(-c3nccn3C)nn3cc(-c4cccnc4)c(-c4ccccc4)c23)c1 [Compound 196]    76 to 100%
COc1ccnc(Nc2nc(-c3nccn3C)nn3cc(-c4ccn(CCN)n4)c(C)c23)c1 [Compound 187]    76 to 100%
CO[C@H]1C[C@H](Nc2nc(-c3nccn3C)nn3cc(-c4ccn(C)n4)c(C)c23)C1 [Compound 103, hydrochloride salt]    1 to 25%

Input line: Any idea what inhibition at 20 µM came out for COCCNC(=O)c1c(-c2ccn(C)n2)cn2nc(-c3nccn3C)nc(N[C@H]3CC[C@H](OC)C3)c12 (racemic) [Compound 183] on Rac-1 (Homo sapiens, UniProt P63000)?
Output line: 1 to 25%

Input line: Try the molecule Cc1c(-c2ccn(C)n2)cn2nc(-c3nccn3C)nc(Nc3ccccn3)c12 [Compound 118]
Output line: 76 to 100%
